Reference source for all entries: ChEMBL document CHEMBL6134789

Biological target: Replicase polyprotein 1ab (Severe acute respiratory syndrome coronavirus 2)
Assay: Inhibition of recombinant SARS-CoV-2 main protease using Dabcyl-KTSAVLQSGFRKM{Glu(Edans)} as substrate preincubated for 10 mins followed by substrate addition and measured at 60 secs interval for 30 mins by fluorogenic assay
# key: entry, value: IC50

| Smiles record | Experimental target | Units | IC50 |
| --- | --- | --- | --- |
| Cc1nc(C(=O)N2CCOCC2)c(C(=O)Nc2ccc(Cl)c(Cl)c2)[nH]1 | Replicase polyprotein 1ab (Severe acute respiratory syndrome coronavirus 2) | µM | 22.9 |
| Cc1nc(C(=O)N2CCOCC2)c(C(=O)Nc2ccc(Cl)cc2)[nH]1 | Replicase polyprotein 1ab (Severe acute respiratory syndrome coronavirus 2) | µM | 4.79 |
| Cc1nc(C(=O)N2CCOCC2)c(C(=O)Nc2cc(Cl)c(Cl)cc2Cl)[nH]1 | Replicase polyprotein 1ab (Severe acute respiratory syndrome coronavirus 2) | µM | 13.3 |
| O=C(Nc1ccc(Cl)c(Cl)c1)c1[nH]cnc1C(=O)N1CCOCC1 | Replicase polyprotein 1ab (Severe acute respiratory syndrome coronavirus 2) | µM | 44.6 |
| Cc1nc(C(=O)N2CCOCC2)c(C(=O)Nc2cc(Cl)ccc2Cl)[nH]1 | Replicase polyprotein 1ab (Severe acute respiratory syndrome coronavirus 2) | µM | 8.43 |
